Value source: PubChem BioAssay AID2060510

# Test system: 439559-082-T-J2-PDC spheroids viability;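 further: spheroids exposed to the agents for 7 days before readout; percent of luminescence signal in DMSO vehicle wells taken as 100% viability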
# procedure text: Anticancer human tumor 439559-082-T-J2-PDC patient-derived colon adenocarcinoma cell line growth inhibition [GQUAD]; active means viability on the fitted dose curve at most 10% of control; inactive means the rest
# setup conditions: second compound 1 µM; first compound 3.16 µM
Log the outcome using a class from 1 = active, 0 = inactive

For orientation, consider the following solved cases.
Recorded call for CC(C)(O)C1CCC(Nc2ccc3ncc(-c4cccc(C(F)(F)F)c4)n3n2)CC1 (stereo unspecified) + CN(C)c1ccc(Nc2c3ccc(NC(=O)CCN4CCCC4)cc3nc3cc(NC(=O)CCN4CCCC4)ccc23)cc1 ? 1

Recorded call for CCCS(=O)(=O)Nc1ccc(F)c(C(=O)c2c[nH]c3ncc(-c4ccc(Cl)cc4)cc23)c1F + Cc1[nH]c2ccc(F)cc2c1-c1nc2c3cccnc3c3ncccc3c2[nH]1 ? 0

Recorded call for CC1COCCN1c1cc(C2(S(C)(=N)=O)CC2)nc(-c2ccnc3[nH]ccc23)n1 (stereo unspecified) + CN(C)c1ccc(Nc2c3ccc(NC(=O)CCN4CCCC4)cc3nc3cc(NC(=O)CCN4CCCC4)ccc23)cc1 ? 0

Recorded call for O=c1[nH]cc(F)c(=O)[nH]1 + Cc1[nH]c2ccc(F)cc2c1-c1nc2c3cccnc3c3ncccc3c2[nH]1 ? 0

New cases:
Recorded call for Nc1ccn(C2OC(CO)C(O)C2(F)F)c(=O)n1 (stereo unspecified) + Cc1[nH]c2ccc(F)cc2c1-c1nc2c3cccnc3c3ncccc3c2[nH]1 ? 0

Recorded call for COc1ncnc(C2CC2)c1-c1ncc2cnn(Cc3ccc(-c4nc(C(F)(F)F)cn4C(C)C)cc3)c2n1 + Cc1[nH]c2ccc(F)cc2c1-c1nc2c3cccnc3c3ncccc3c2[nH]1 ? 0

Recorded call for CC(=O)O[C@H]1C(=O)[C@@]2(C)[C@H]([C@H](OC(=O)c3ccccc3)[C@]3(O)C[C@H](OC(=O)[C@H](O)[C@@H](NC(=O)c4ccccc4)c4ccccc4)C(C)=C1C3(C)C)[C@]1(OC(C)=O)CO[C@@H]1C[C@@H]2O + Cc1[nH]c2ccc(F)cc2c1-c1nc2c3cccnc3c3ncccc3c2[nH]1 ? 1

Recorded call for O=C(NO)c1cnc(N2CCN(S(=O)(=O)c3ccc4ccccc4c3)CC2)nc1 + Cc1[nH]c2ccc(F)cc2c1-c1nc2c3cccnc3c3ncccc3c2[nH]1 ? 0

Recorded call for CC1COCCN1c1cc(C2(S(C)(=N)=O)CC2)nc(-c2ccnc3[nH]ccc23)n1 (stereo unspecified) + Cc1[nH]c2ccc(F)cc2c1-c1nc2c3cccnc3c3ncccc3c2[nH]1 ? 0

Recorded call for C#Cc1c(F)ccc2cc(O)cc(-c3ncc4c(N5CC6CCC(C5)N6)nc(OCC56CCCN5CC(F)C6)nc4c3F)c12 (stereo unspecified) + Cc1[nH]c2ccc(F)cc2c1-c1nc2c3cccnc3c3ncccc3c2[nH]1 ? 1

Recorded call for COc1cccc2c1C(=O)c1c(O)c3c(c(O)c1C2=O)CC(O)(C(=O)CO)CC3OC1CC(N)C(O)C(C)O1 (stereo unspecified) + CN(C)c1ccc(Nc2c3ccc(NC(=O)CCN4CCCC4)cc3nc3cc(NC(=O)CCN4CCCC4)ccc23)cc1 ? 0
